System: 186277-243-T-J2-PDC spheroids with HUVEC/MSC, viability;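 also: compound exposure lasted seven days before readout; 100% = DMSO vehicle control wells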
method: Anticancer human tumor 186277-243-T-J2-PDC patient-derived colon adenocarcinoma cell line growth inhibition [CLK]
condition: second compound 10 µM; first compound 0.316 µM; hits give low values
Text: A high-throughput screen of multi-cell type tumor spheroids was designed to identify active combinations of […] and targeted small molecules. Complex spheroids include a stromal component modeled by human endothelial cells (HUVEC) and fibroblasts modeled by human mesenchymal stem cells (MSCs). […] Compounds. […] If the clinical Cmax for an agent had not been determined, the highest concentration tested was 10 microM. […]
measured property: viability, T/C (%)
Express your answer in %, writing the number without its unit.

compound: C=CC(=O)N1CCN(c2nc(=O)n(-c3c(C)ccnc3C(C)C)c3nc(-c4c(O)cccc4F)c(F)cc23)C(C)C1 (centres undefined) + CNC(=O)c1ccc(Nc2nc(OC3CCCC3)c3c(-c4ccc5nc(C)oc5c4)c[nH]c3n2)c(OC)c1
measured property: viability, T/C
reported value: 36.3
//
compound: CCCS(=O)(=O)Nc1ccc(F)c(C(=O)c2c[nH]c3ncc(-c4ccc(Cl)cc4)cc23)c1F + CN1CCN(c2cc(C(=O)Nc3cc4cc(-c5cnn(C)c5)ccc4cn3)ccn2)CC1
measured property: viability, T/C
reported value: 1.61
//
compound: COc1c(OCCCN2CCOCC2)ccc2c3n(c(=NC(=O)c4cnc(N)nc4)nc12)CCN3 + CN1CCN(c2cc(C(=O)Nc3cc4cc(-c5cnn(C)c5)ccc4cn3)ccn2)CC1
measured property: viability, T/C
reported value: 1.19

## Input What measured viability, T/C goes with COc1c(OCCCN2CCOCC2)ccc2c3n(c(=NC(=O)c4cnc(N)nc4)nc12)CCN3 + CNC(=O)c1ccc(Nc2nc(OC3CCCC3)c3c(-c4ccc5nc(C)oc5c4)c[nH]c3n2)c(OC)c1 ?
## Output 3.21

## Input What measured viability, T/C goes with Nc1ccn(C2OC(CO)C(O)C2(F)F)c(=O)n1 (centres undefined) + CNC(=O)c1ccc(Nc2nc(OC3CCCC3)c3c(-c4ccc5nc(C)oc5c4)c[nH]c3n2)c(OC)c1 ?
## Output 6.83

## Input What measured viability, T/C goes with COC1C=CCC(C)C(C)S(=O)(=O)NC(=O)c2ccc3c(c2)N(CC2CCC21)CC1(CCCc2cc(Cl)ccc21)CO3 (centres undefined) + CN1CCN(c2cc(C(=O)Nc3cc4cc(-c5cnn(C)c5)ccc4cn3)ccn2)CC1 ?
## Output 1.01

## Input What measured viability, T/C goes with COc1cccc2c1C(=O)c1c(O)c3c(c(O)c1C2=O)CC(O)(C(=O)CO)CC3OC1CC(N)C(O)C(C)O1 (centres undefined) + CNC(=O)c1ccc(Nc2nc(OC3CCCC3)c3c(-c4ccc5nc(C)oc5c4)c[nH]c3n2)c(OC)c1 ?
## Output 4.4

## Input What measured viability, T/C goes with CC(=O)O[C@H]1C(=O)[C@@]2(C)[C@H]([C@H](OC(=O)c3ccccc3)[C@]3(O)C[C@H](OC(=O)[C@H](O)[C@@H](NC(=O)c4ccccc4)c4ccccc4)C(C)=C1C3(C)C)[C@]1(OC(C)=O)CO[C@@H]1C[C@@H]2O + CN1CCN(c2cc(C(=O)Nc3cc4cc(-c5cnn(C)c5)ccc4cn3)ccn2)CC1 ?
## Output 0.65

## Input What measured viability, T/C goes with CC(=O)O[C@H]1C(=O)[C@@]2(C)[C@H]([C@H](OC(=O)c3ccccc3)[C@]3(O)C[C@H](OC(=O)[C@H](O)[C@@H](NC(=O)c4ccccc4)c4ccccc4)C(C)=C1C3(C)C)[C@]1(OC(C)=O)CO[C@@H]1C[C@@H]2O + CNC(=O)c1ccc(Nc2nc(OC3CCCC3)c3c(-c4ccc5nc(C)oc5c4)c[nH]c3n2)c(OC)c1 ?
## Output 41
